- SYSTEM_NAME: CCNE1 (Homo sapiens, UniProt P24864+P24941)
- Construct: host or cells: HEK293
- ASSAY_PROCEDURE: CCNE1 HIBIT PQ (protein quantification), degradation
- Format: cell-based
- ASSAY_SETUP: PQ = Protein Quantification

# COMPOUND, SCALE_UNIT, DC50
records = [
    ("CC(C)Oc1c(-c2cn[nH]c2)ncn2nc(Nc3ccc(S(=O)(=O)c4cccc(C(C)N5CCC(c6ccc7c(N8CCC(=O)NC8=O)nn(C)c7c6)CC5)c4)cc3F)nc12 (single isomer, unassigned) [Compound 100]", "nM", 14.3),
    ("CC(C)Oc1c(-c2cn[nH]c2)ncn2nc(Nc3ccc(S(=O)(=O)c4cccc(CN5CCN(c6ccc7c(N8CCC(=O)NC8=O)nn(C)c7c6)CC5C(C)C)c4)cc3F)nc12 (racemic) [Compound 42]", "nM", 78.9),
    ("CC(C)Oc1c(-c2cn[nH]c2)ncn2nc(Nc3ccc(S(=O)(=O)N4CCCC(CN5CCC(c6ccc7c(c6)n(C)c(=O)n7C6CCC(=O)NC6=O)CC5)C4)cc3F)nc12 (centres unmarked)", "nM", 0.17),
    ("CC(C)Oc1c(-c2cn[nH]c2)ncn2nc(Nc3ccc(S(=O)(=O)c4cccc(N5CCN(CC6CCN(c7ccc8c(c7)CN(C7CCC(=O)NC7=O)C8=O)CC6)CC5)c4)cc3F)nc12 (racemic)", "nM", 6.38),
    ("CC(C)Oc1c(-c2cn[nH]c2)ncn2nc(Nc3ccc(S(=O)(=O)N4CC5C4CCN5CC4CCN(c5cccc6c5n(C)c(=O)n6C5CCC(=O)NC5=O)CC4)cc3F)nc12 (centres unmarked)", "nM", 3.57),
]
